System: Haemophilus influenzae 1218
Assay: MIC, microtiter broth dilution (NCCLS M100-S14), H. influenzae 1218 (susceptible)
Format: cell-based
Details: Haemophilus influenzae 1218
# MIC H. influenzae 1218 listing for each entry below
reported endpoint: MIC H. influenzae 1218

>>> reading("CCC1OC(=O)C(C)C(=O)C(C)C(OC2OC(C)CC(N(C)C)C2O)C(C)(OC)CC(C)C(=O)C(C)C2N(C3CN(Cc4c(F)cccc4F)C3)C(=O)OC12C (centres unmarked)")
"0.5 µg/mL"
>>> reading("CCC1OC(=O)C(C)C(=O)C(C)C(OC2OC(C)CC(N(C)C)C2O)C(C)(OC)CC(C)C(=O)C(C)C2N(C3CN(Cc4ccn[nH]4)C3)C(=O)OC12C (centres unmarked)")
"0.25 µg/mL"
>>> reading("CCC1OC(=O)C(C)C(=O)C(C)C(OC2OC(C)CC(N(C)C)C2O)C(C)(OC)CC(C)C(=O)C(C)C2N(C3CN(Cc4ccnc5ccc(OC)cc45)C3)C(=O)OC12C (centres unmarked)")
"2 µg/mL"
>>> reading("CCC1OC(=O)C(C)C(=O)C(C)C(OC2OC(C)CC(N(C)C)C2O)C(C)(OC)CC(C)C(=O)C(C)C2N(CC3CN(C(=O)c4cccc(C#N)c4)C3)C(=O)OC12C (centres unmarked)")
"3.12 µg/mL"
>>> reading("CCC1OC(=O)C(C)C(=O)C(C)C(OC2OC(C)CC(N(C)C)C2O)C(C)(OC)CC(C)C(=O)C(C)C2N(C3CN(C(=O)NCc4cnc5ccccc5c4)C3)C(=O)OC12C (centres unmarked)")
"0.5 µg/mL"
